B1: OAS1 (parent)
chain: YIGTHEYPHFSHRPSTLQAASTPQ

Variants of: B1
Method Description: protein stability index of a GFP-peptide fusion (GPS, HEK-293T) (PSI 1-6); higher = more stable;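 also: lentivirally expressed fusions sorted by FACS into six bins by GFP to DsRed ratio, PSI derived from sequencing read proportions per bin multiplied by bin number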
Test Conditions: c terminus: a fixed tail appended
Catalogue of protein stability index values
Reported Endpoint: protein stability index

[
  {
    "Sequence Entry": "YIGTHEYQHFSHRPSTLQAASTPQ",
    "Reported Endpoint": "protein stability index",
    "Experimental Value": 1.95
  },
  {
    "Sequence Entry": "YIGTHEYPHFSHRPSTLQAFSTPQ",
    "Reported Endpoint": "protein stability index",
    "Experimental Value": 1.73
  },
  {
    "Sequence Entry": "YIGTHEYPHFSHRPSTLQAAYTPQ",
    "Reported Endpoint": "protein stability index",
    "Experimental Value": 1.95
  },
  {
    "Sequence Entry": "YIGTHEYPHFSHRPSTLQAATTPQ",
    "Reported Endpoint": "protein stability index",
    "Experimental Value": 2.07
  },
  {
    "Sequence Entry": "YIGTHEYPHGSHRPSTLQAASTPQ",
    "Reported Endpoint": "protein stability index",
    "Experimental Value": 2.88
  },
  {
    "Sequence Entry": "YIGDHEYPHFSHRPSTLQAASTPQ",
    "Reported Endpoint": "protein stability index",
    "Experimental Value": 2.56
  },
  {
    "Sequence Entry": "YIGTHEYAHFSHRPSTLQAASTPQ",
    "Reported Endpoint": "protein stability index",
    "Experimental Value": 1.74
  },
  {
    "Sequence Entry": "YWGTHEYPHFSHRPSTLQAASTPQ",
    "Reported Endpoint": "protein stability index",
    "Experimental Value": 2.66
  },
  {
    "Sequence Entry": "YIGTHEYPHFSHRPSTLCAASTPQ",
    "Reported Endpoint": "protein stability index",
    "Experimental Value": 2.08
  },
  {
    "Sequence Entry": "YIGTHEYPHFSHRPSTLQAASTYQ",
    "Reported Endpoint": "protein stability index",
    "Experimental Value": 1.75
  },
  {
    "Sequence Entry": "YIGTHEYPHFSHRPSALQAASTPQ",
    "Reported Endpoint": "protein stability index",
    "Experimental Value": 2.29
  },
  {
    "Sequence Entry": "YIGTHEYPLFSHRPSTLQAASTPQ",
    "Reported Endpoint": "protein stability index",
    "Experimental Value": 1.67
  },
  {
    "Sequence Entry": "YIATHEYPHFSHRPSTLQAASTPQ",
    "Reported Endpoint": "protein stability index",
    "Experimental Value": 2.11
  },
  {
    "Sequence Entry": "YIGTHEYPHFSHRPLTLQAASTPQ",
    "Reported Endpoint": "protein stability index",
    "Experimental Value": 1.69
  },
  {
    "Sequence Entry": "YEGTHEYPHFSHRPSTLQAASTPQ",
    "Reported Endpoint": "protein stability index",
    "Experimental Value": 4.18
  },
  {
    "Sequence Entry": "YIGKHEYPHFSHRPSTLQAASTPQ",
    "Reported Endpoint": "protein stability index",
    "Experimental Value": 2.15
  },
  {
    "Sequence Entry": "YIGTHEYPHFSHRPGTLQAASTPQ",
    "Reported Endpoint": "protein stability index",
    "Experimental Value": 1.79
  },
  {
    "Sequence Entry": "YIGTHELPHFSHRPSTLQAASTPQ",
    "Reported Endpoint": "protein stability index",
    "Experimental Value": 2.06
  },
  {
    "Sequence Entry": "YIGTHEYPHFSSRPSTLQAASTPQ",
    "Reported Endpoint": "protein stability index",
    "Experimental Value": 1.83
  },
  {
    "Sequence Entry": "YIGTHEYPHHSHRPSTLQAASTPQ",
    "Reported Endpoint": "protein stability index",
    "Experimental Value": 2.56
  },
  {
    "Sequence Entry": "YIGTHEYPHFSHRPSTLQAASTMQ",
    "Reported Endpoint": "protein stability index",
    "Experimental Value": 1.89
  },
  {
    "Sequence Entry": "YAGTHEYPHFSHRPSTLQAASTPQ",
    "Reported Endpoint": "protein stability index",
    "Experimental Value": 2.29
  }
]

Data provenance is the supplement of paper PMC10567573.
